The reported measurements were obtained from PubChem BioAssay.

# tested-on: Homeobox protein Hox-A13 (Mus musculus) (UniProt Q62424)
# Sequence (Q62424 whole entry, looked up): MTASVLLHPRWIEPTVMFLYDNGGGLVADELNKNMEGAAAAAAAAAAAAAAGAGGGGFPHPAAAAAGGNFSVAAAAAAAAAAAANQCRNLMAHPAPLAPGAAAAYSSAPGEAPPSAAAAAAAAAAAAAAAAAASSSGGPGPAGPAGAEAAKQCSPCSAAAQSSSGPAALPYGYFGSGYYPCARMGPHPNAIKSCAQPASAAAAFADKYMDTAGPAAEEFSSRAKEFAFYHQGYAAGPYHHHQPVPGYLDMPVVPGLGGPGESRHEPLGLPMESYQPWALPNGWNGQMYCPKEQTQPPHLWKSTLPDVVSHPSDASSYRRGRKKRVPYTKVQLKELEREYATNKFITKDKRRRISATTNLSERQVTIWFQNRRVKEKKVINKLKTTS
# assay-explanation: disruptors of Hoxa13 oligonucleotide interaction – biochemical, fluorescence polarization, labeled oligonucleotide, primary screen (AID 1185)
# run-conditions: Hoxa13:DNA binding, 15 min, higher = more signal, called active from +8 up or from −8 down
Below is a list of entries, each paired with its recorded z-score value.
No unit in the answer, only the number.

Ask: GET /values?readout=z-score&item= COc1cc2c(cc1O)C(c1cccs1)N(Cc1ccc([N+](=O)[O-])o1)CC2 (centres undefined)
Result: -6.24

Ask: Given the compound "COCC(=C=CC[C@@H](O)c1ccc(OCCO)cc1)C[C@@H](O)c1ccccn1" , what is its reported z-score?
Result: -5.97

Ask: Can you look up the measured z-score of "C=CC[C@]1(C(=O)NCc2ccccc2)N=C(c2ccc(OCCCO)cc2)O[C@H]1c1ccccc1CN=[N+]=[N-]" for me?
Result: 0.343

***
Ask: So what's the measured z-score for this one? "COc1ccc([Si](C)(C)[C@@H]2[C@@H](CC(=O)N3Cc4ccccc4C[C@H]3CO)O[C@]3(C(=O)N(Cc4cccc(N5CCC5=O)c4)c4ccccc43)[C@H]2C)cc1"
Result: -1.51

* * *

# tested-on: Fibroblast growth factor 2 (Homo sapiens)
# assay-explanation: basic fibroblast growth factor binding to printed compounds – biochemical, small-molecule microarray, 635/667 nm fluorescence, primary screen (AID 1133)
# run-conditions: FGF2, fluorescence 635/667, higher = more signal
Quick rule for you: composite z-score at 0.3 or higher means t, lower means f.

Ask: Quick check, composite z-score >= 0.3? "O=C1[C@H]2C=C(Br)[C@H](C[C@@H]2OCCCCCCO)[C@@]12CO2"
Result: f

Ask: Entry CCCCN1CC=CC23O[C@@H]4/C=C\CCCOC(=O)C4[C@H]2C(=O)N(CCCCCO)[C@@H]3C1=O (some centres not stated) : is its composite z-score no less than 0.3?
Result: f

Ask: Tell me whether composite z-score is at least 0.3 here: "[N-]=[N+]=Nc1ccccc1C[C@]1(C(=O)N2CCCCC2)COC(c2ccc(OCCCO)cc2)=N1"
Result: f

Ask: Could you tell me if the measured composite z-score of "COCCOC(=O)N1C(=O)[C@@]2(c3ccccc31)[C@H](C(=O)N1CCc3cc(OC)c(OC)cc3C1)[C@H]1C(=O)O[C@H](c3ccccc3)[C@H](c3ccccc3)N1[C@@H]2c1ccc(O)cc1" reaches 0.3 or more?
Result: t

Next:
Ask: Please tell me: is the compound "CCOC(=O)C[C@H]1[C@H](OC(=O)c2cc3ccccc3oc2=O)[C@@H](NC(=O)CC(C)C)c2cc(OCCCO)ccc2N1C(=O)c1ccccc1" at or over 0.3 in terms of composite z-score?
Result: t

Ask: Can "C=CC[C@]1(C(=O)N2CCOCC2)N=C(c2ccc(OCCCO)cc2)O[C@H]1c1ccccc1N=[N+]=[N-]" be said to have composite z-score at or above 0.3?
Result: f

* * *

# assay-explanation: probe aDKK1 binding to arrayed compounds – biochemical, biotinylated probe, 635/667 nm fluorescence, primary screen (AID 1099);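 note: score merges 667nm spot fluorescence with signal to noise across triplicate slides; reference of the scale not given here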
# run-conditions: small-molecule microarray, higher = more signal
measurement-name: composite z-score
Answer using only a numeral; do not append any unit.

Ask: What value of measured composite z-score is listed for "CN(C)CCCC[C@@H]1NC(=O)[C@H]2C[C@@H](C(=O)NCCCCCN)[C@@H](c3cccc(OCCO)c3)N2C1=O" ?
Result: 1.33

Ask: Recorded composite z-score for "COc1ccc([Si](C)(C)[C@H]2[C@H](CC(=O)N3CCC[C@H]3CO)O[C@@]3(C(=O)N(Cc4cccc(N5CCOC5=O)c4)c4ccccc43)[C@@H]2C)cc1" , please?
Result: -0.195

Ask: Which composite z-score is reported for this compound? "COC(=O)[C@]1(Cc2ccccc2)N=C(c2ccc(OCCCO)cc2)O[C@@H]1c1ccccc1N=[N+]=[N-]"
Result: 0.124

Ask: Bench note: what composite z-score did COc1cc2c(cc1O)C(c1cccs1)N(Cc1ccc([N+](=O)[O-])o1)CC2 (stereo not given) show?
Result: 0.728

Ask: Give its composite z-score value. Item: "COc1ccc([Si](C)(C)[C@@H]2[C@@H](CCn3cc(CCO)nn3)O[C@]3(C(=O)N(Cc4cccc(N5C(=O)c6cccc7cccc5c67)c4)c4ccccc43)[C@H]2C)cc1"
Result: -0.212

Ask: For the compound C=CCC(OC(C)=O)[C@@H]1[C@@H](N(Cc2ccc(-c3cccc(C(F)(F)F)c3)o2)C(=O)Cc2ccc(OC)cc2)c2cc(OCCCO)ccc2N1C(=O)c1ccc2ccccc2c1 (stereo not given in full) , what composite z-score is on record?
Result: -0.179

Ask: Which composite z-score reading was recorded for the compound "O=C(NCCN1CCOCC1)[C@@H]1c2ccccc2C(=O)N(Cc2cc(C(F)(F)F)cc(C(F)(F)F)c2)[C@H]1c1ccc(CO)cc1" ?
Result: 0.254

Ask: So what does the record say about composite z-score for "COc1ccc(CCNC(=O)[C@@]2(C)c3ccccc3C(=O)N(c3ccc(C)cn3)[C@H]2c2ccc(CO)cc2)cc1" ?
Result: -0.0508

Ask: Given the compound CN1C(=O)C2C=CC(C(O)c3ccc(F)cc3)N(N(c3ccccc3)c3ccccc3)C2C1=O (stereo not given) , what is its reported composite z-score?
Result: 0.303

Ask: Give its composite z-score value. Item: "C=C(/C(=C/C[C@H](OC(C)=O)c1ccc(OCCO)cc1)c1cc(C(=O)OC)ccc1OC)C(C)C"
Result: 0.0971

Ask: Which composite z-score value belongs to N#Cc1ccc(C(O)C2C=CC3C(=O)N(c4ccccc4)C(=O)C3N2Nc2ccccc2F)cc1 (stereo not given) ?
Result: -0.0589

Ask: Which composite z-score is listed for "O=C1N(CCS(=O)(=O)c2ccccc2)c2ccccc2[C@@H]2OC(c3ccc(OCCCO)cc3)=N[C@]12Cc1ccccc1" ?
Result: 0.0733

Ask: Report composite z-score for "O=C1C[C@@](C(=O)NCc2ccccc2)(c2ccc([N+](=O)[O-])cc2)[C@@H](c2ccc(CO)cc2)N1CC12CC3CC(CC(C3)C1)C2" please.
Result: -0.387

Ask: Item under review: "[N-]=[N+]=NCc1ccccc1[C@@H]1OC(c2ccc(OCCCO)cc2)=N[C@]1(CCS(=O)(=O)c1ccccc1)C(=O)N1CCCCC1" . Reported composite z-score?
Result: 0.0798

Ask: If you can, please state the reported composite z-score value of "CC#CC(=O)Oc1ccc(Br)cc1C=CC(=O)OCC" .
Result: 0.321

* * *

# assay-explanation: plasmodial surface anion channel blockers, osmotic lysis – cell-based, P. falciparum Indochina, OD700, 18 h, primary screen (AID 1157)
# run-conditions: P. falciparum Indochina infected erythrocytes, osmotic lysis OD700, 18 h; higher = more signal, called active from +8 up or from −8 down
measurement-name: z-score
Provide a numeric answer; units are not to be included.

Solved cases below.
Ask: Field request: z-score | item: "COC(=O)C(CC#Cc1ccc2c(c1)[C@]1(C(=O)N2)[C@H](c2ccccc2OCCO)N2[C@H](c3ccccc3)[C@H](c3ccccc3)OC(=O)[C@H]2[C@@H]1C(=O)O)C(=O)OC"
Result: -0.0236

Ask: Can you share its z-score? I mean this compound: "NC(=O)[C@@H]1[C@H]2C(=O)O[C@H](c3ccccc3)[C@H](c3ccccc3)N2[C@H](c2ccc(OCCO)cc2)[C@@]12C(=O)Nc1ccc(C#CC3=CCCCC3)cc12"
Result: -0.198

Ask: What value of z-score has been reported for the following compound? "CC(C)NC(=O)[C@@H]1c2ccccc2C(=O)N(C(C)C)[C@H]1c1ccc(CO)cc1"
Result: 0.207

Ask: Any idea what its z-score is? The compound is "COC(=O)[C@@]1(Cc2ccc(F)cc2)[C@H]2c3cc(C(=O)N(C)C)n(Cc4ccc(C)o4)c3C[C@H]2CN1C(=O)c1ccccc1"
Result: 1.3

Ask: Requested field: z-score. Item: "C=C(CCCC)/C(=C/C[C@H](OC(C)=O)c1ccc(OCCO)cc1)c1cnc2ccccc2c1"
Result: 1.04

Ask: Any idea what z-score was measured for "C=CC[C@@]1(C(=O)N2CCCCC2)N=C(c2ccc(OCCCO)cc2)O[C@@H]1c1ccccc1CN=[N+]=[N-]" ?
Result: 1.04

Ask: What value of z-score has been recorded for this entry: C=CCN(Cc1ccccc1)C(=O)C(c1cccs1)N(C(=O)/C=C\C(=O)O)c1ccc(CCOCCO)cc1 (centres undefined)
Result: -1.04

Ask: Suppose we examine the compound "CCCCCCc1nc(-c2ccc(-c3ccc(Cl)c(Cl)c3)o2)cc2c1[Si](C(C)C)(C(C)C)O[C@H]2c1ccccc1" ; what z-score value has been reported?
Result: 0.333

---
Ask: Request the reported z-score associated with O=C1C2C=CC(C(O)C=Cc3ccc([N+](=O)[O-])cc3)N(Nc3ccccc3F)C2C(=O)N1c1ccccc1 (centres undefined)
Result: 1.59

Ask: Entry COc1cc(OC)c(C(O)C2C=CC3C(=O)NC(=O)C3N2Nc2ccccn2)cc1Br (centres undefined) has what z-score?
Result: 0.876

Ask: Tell me the measured z-score of "COC(=O)[C@@]1(Cc2ccc(OC)cc2)[C@H]2c3cc(C(=O)N4CCCC4)n(CCc4ccc(O)c(O)c4)c3C[C@H]2CN1C(=O)c1ccccc1" , please.
Result: 0.912

Ask: Using the record for "[N-]=[N+]=NCc1ccccc1[C@@H]1OC(c2ccc(OCCCO)cc2)=N[C@]1(CCS(=O)(=O)c1ccccc1)C(N)=O" , report its z-score.
Result: 1.75

Ask: For "C#CCOc1ccc(C[C@@H](C(=O)OC)N(CC#C)[C@@H](/C=C/C2CC2)[C@H](O)Cc2ccccc2)cc1" , what is its reported z-score?
Result: -0.111

Ask: Endpoint output: z-score of "COCCOC(=O)N1C(=O)[C@@]2(c3cc(C#CC4=CCCCC4)ccc31)[C@H](c1ccc(OCCO)cc1)N1[C@H](c3ccccc3)[C@H](c3ccccc3)OC(=O)[C@H]1[C@@H]2C(=O)N1CCc2cc(OC)c(OC)cc2C1" . Value?
Result: 1.13
